Hi! I'm sharing some MIC results obtained with Escherichia coli ATCC 25922.
A complete answer gives the number followed by the unit.

{"STRUCTURE": "C[C@H](NC(=O)[C@H](Cc1c[nH]c2ccccc12)NC(=O)[C@H](CCCN=C(N)N)NC(=O)[C@H](Cc1c[nH]c2ccccc12)NC(=O)[C@H](C)NC(=O)[C@H](CCCCN)NC(=O)[C@@H](N)Cc1ccc(O)cc1)C(=O)N[C@@H](Cc1c[nH]c2ccccc12)C(=O)N[C@@H](CCCN=C(N)N)C(=O)N[C@@H](Cc1c[nH]c2ccccc12)C(=O)N[C@@H](CCCCN)C(N)=O", "MIC": "4.58 µM"}

// next item, MIC requested
Inquiry: Value lookup for MIC; key = `CC[C@H](C)[C@H](NC(=O)[C@H](CCCN=C(N)N)NC(=O)[C@H](Cc1c[nH]c2ccccc12)NC(=O)[C@H](CS)NC(=O)[C@@H](N)C(C)C)C(=O)N[C@@H](CCCN=C(N)N)C(=O)N[C@H](C(=O)N[C@@H](C)C(=O)N[C@H](C(=O)N[C@H](C(=O)N[C@@H](CCCN=C(N)N)C(=O)N[C@@H](C)C(=O)O)[C@@H](C)CC)C(C)C)C(C)C`
Reply text: 44.4 µM

From: DBAASP
